This collection of values is drawn from patent US20250213705A1.

Molecular target: human FOLH1 (Homo sapiens (Human), UniProt Q04609)
Sequence (Q04609 whole entry): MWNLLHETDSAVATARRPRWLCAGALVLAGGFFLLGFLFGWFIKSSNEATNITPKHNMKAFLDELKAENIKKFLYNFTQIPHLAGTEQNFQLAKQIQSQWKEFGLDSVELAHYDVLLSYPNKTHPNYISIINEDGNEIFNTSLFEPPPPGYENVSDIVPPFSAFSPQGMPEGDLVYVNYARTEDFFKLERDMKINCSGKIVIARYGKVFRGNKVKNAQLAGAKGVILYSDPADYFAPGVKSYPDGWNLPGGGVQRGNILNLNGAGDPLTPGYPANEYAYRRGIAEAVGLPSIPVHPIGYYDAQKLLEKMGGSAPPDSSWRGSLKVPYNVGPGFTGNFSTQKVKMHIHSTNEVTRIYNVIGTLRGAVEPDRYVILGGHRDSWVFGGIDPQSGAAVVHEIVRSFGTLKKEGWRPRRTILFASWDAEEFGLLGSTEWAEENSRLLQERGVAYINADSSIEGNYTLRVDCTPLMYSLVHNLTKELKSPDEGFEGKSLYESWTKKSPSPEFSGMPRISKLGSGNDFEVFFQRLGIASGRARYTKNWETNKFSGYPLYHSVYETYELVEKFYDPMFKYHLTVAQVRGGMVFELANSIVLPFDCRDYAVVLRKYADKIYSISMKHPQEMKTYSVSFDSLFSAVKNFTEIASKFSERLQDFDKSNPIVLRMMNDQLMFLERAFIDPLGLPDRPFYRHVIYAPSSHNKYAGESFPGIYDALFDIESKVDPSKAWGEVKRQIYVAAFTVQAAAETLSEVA
Test: SPR analysis of binding kinetics to biotinylated FOLH1 (Biacore 8K)
Conditions: ligand PSMA, association rate
recorded metric: Kon

Kindly note the recorded Kon for CC(=O)NCCOCCOCCOCCC(=O)NC[C@H]1CC[C@H](C(=O)N[C@@H](Cc2ccc3ccccc3c2)C(=O)NCCCC[C@H](NC(=O)N[C@@H](CCCC(=O)O)C(=O)O)C(=O)O)CC1 [Compound 24] , which is 305000 1.ms

# compound CC(=O)NCCOCCOCCOCCC(=O)N[C@@H](CCCOc1ccc(F)cc1F)C(=O)NC[C@H]1CC[C@H](C(=O)N[C@@H](Cc2ccc3ccccc3c2)C(=O)NCCCC[C@H](NC(=O)N[C@@H](CCC(=O)O)C(=O)O)C(=O)O)CC1 [Compound 40] ; its Kon = 153000 1.ms

// field: Kon; key: CC(=O)NCCOCCOCCOCCC(=O)NC[C@H]1CC[C@H](C(=O)N[C@@H](Cc2ccc(-c3ccccc3)cc2)C(=O)NCCCC[C@H](NC(=O)N[C@@H](CCC(=O)O)C(=O)O)C(=O)O)CC1 [Compound 7] ; value = 293000 1.ms

Kon recorded for this compound, CC(=O)NCCOCCOCCOCCC(=O)N(CCCCOc1cc(C#N)cc(C#N)c1)CC(=O)N[C@@H](Cc1ccc2ccccc2c1)C(=O)NCCCC[C@H](NC(=O)N[C@@H](CCC(=O)O)C(=O)O)C(=O)O [Compound 87] , is 272000 1.ms

Notebook: CC(=O)NCCOCCOCCOCCC(=O)N(CCCOc1cc(C#N)cc(C#N)c1)CC(=O)N[C@@H](Cc1ccc2ccccc2c1)C(=O)NCCCC[C@H](NC(=O)N[C@@H](CCC(=O)O)C(=O)O)C(=O)O [Compound 78] , Kon read as 487000 1.ms
